SYSTEM: Prostaglandin E2 receptor EP2 subtype (Homo sapiens)
PROTOCOL_NOTES: blockers of PGE2-driven EP2 cAMP signalling – TR-FRET cAMP, C6 glioma cells, primary screen (AID 1422);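 note: rat C6 glioma host cells with rolipram phosphodiesterase inhibitor present; the protocol text gives 20 µM as final concentration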
TEST_SETTINGS: C6 glioma cells expressing human EP2, cAMP TR-FRET; at 25 µM; active compounds read high; cells stimulated with saturating PGE2
About 1,300 (0.5%) of roughly 260,000 compounds were called active. Shown is part of a subset that was picked to be rich in actives.
In this section, each of the compounds is paired with its reported inhibition.
Express the result in % but write the number alone.

Per the records, this compound ( O=[N+]([O-])c1cc(Br)c(O)c(/C=N/Nc2nc3ccccc3s2)c1 ) has inhibition equal to 77

Per the records, this compound ( COc1ccccc1CSc1nc2ccccc2[nH]1 ) has inhibition equal to -5.57

Per the records, this compound ( Cc1ccc2cc(CN(Cc3cccs3)Cc3nnnn3Cc3ccco3)c(=O)[nH]c2c1 ) has inhibition equal to 12.8

###

SYSTEM: Prostaglandin E2 receptor EP2 subtype (Homo sapiens)
PROTOCOL_NOTES: blockers of PGE2-driven EP2 cAMP signalling – TR-FRET cAMP, C6 glioma cells, primary screen (AID 1422);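 note: rat C6 glioma host cells with rolipram phosphodiesterase inhibitor present; the protocol text gives 20 µM as final concentration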
TEST_SETTINGS: C6 glioma cells expressing human EP2, cAMP TR-FRET; at 25 µM; active compounds read high; cells stimulated with saturating PGE2
Hit rate of the full screen: of about 260,000 compounds, about 1,300 (0.5%) were called active. Many of the other results were omitted from the sample, so actives are more common in it than they were.
MEASURED_ENDPOINT: inhibition (%)
Express the result in % but write the number alone.

Some entries whose results are on file:
MOLECULE: ClC(Cl)(Cl)C(N1CCN(c2ccccc2)CC1)N1CCN(c2ccccc2)CC1
inhibition [%]: 46.7
--
MOLECULE: CC(=O)Nc1cccc([N+](=O)[O-])c1
inhibition [%]: 3.91
--
MOLECULE: C(=N/N1CCN(c2ccccc2)CC1)/c1cccs1
inhibition [%]: 6.51
--
MOLECULE: COC(=O)/C=C\C(=O)Nc1cccc([N+](=O)[O-])c1
inhibition [%]: 113
--
MOLECULE: Cc1ccc(CNS(=O)(=O)c2cccc(S(=O)(=O)N3CCCC3)c2)cc1
inhibition [%]: 10.8

Per the records, this molecule ( Cc1nc2c(c(=O)[nH]1)CCN(C(=O)Cn1c3ccccc3c3ccccc31)C2 ) has inhibition equal to 7.09

###

In this section, each of the compounds is paired with its reported inhibition.
SYSTEM: Prostaglandin E2 receptor EP2 subtype (Homo sapiens)
PROTOCOL_NOTES: blockers of PGE2-driven EP2 cAMP signalling – TR-FRET cAMP, C6 glioma cells, primary screen (AID 1422);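 note: rat C6 glioma host cells with rolipram phosphodiesterase inhibitor present; the protocol text gives 20 µM as final concentration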
TEST_SETTINGS: C6 glioma cells expressing human EP2, cAMP TR-FRET; at 25 µM; active compounds read high; cells stimulated with saturating PGE2
The whole screen tested about 260,000 compounds, of which about 1,300 (0.5%) were called active. What follows is part of a selection rich in actives, with near analogues and random picks from the rest.
Express the result in % but write the number alone.

COMPOUND: CCCc1[nH]nc2c1C(c1c(C)nn(-c3ccccc3)c1Cl)C(C#N)=C(N)O2 (stereo unspecified)
UNIT_DESCRIPTOR: %
inhibition: 25.4
//
COMPOUND: NC(N)=N/N=C/c1ccc(Cl)c([N+](=O)[O-])c1
UNIT_DESCRIPTOR: %
inhibition: 5.88
//
COMPOUND: COc1ccc(C2(NC(=O)c3noc(C)c3Cn3cccn3)CCCCC2)cc1
UNIT_DESCRIPTOR: %
inhibition: 7.45
//
COMPOUND: CC(C)(C)NC(=O)Cn1nc(-c2nccc3ccccc23)oc1=O
UNIT_DESCRIPTOR: %
inhibition: 2.81
//
COMPOUND: NC(N)=N/N=C/c1ccc(OCc2ccc(Cl)cc2Cl)cc1
UNIT_DESCRIPTOR: %
inhibition: 97.3

Observed inhibition on Prostaglandin E2 receptor EP2 subtype (Homo sapiens), entry O=C(NC1CCCC1)C(c1ccccc1F)N(Cc1ccco1)C(=O)Cc1c[nH]c2ccccc12 (stereo unspecified) , equals 11.9
